Cited source for all entries: patent US20170037110A1

Kindly state peptide exchange yield for each of the entries shown.
# test_target: T1, HLA-A*02:01 (human)
# T1 construct: monomers captured on streptavidin plates; also called MHC class I
# assay_info: UV peptide exchange ELISA
# Description: Candidate peptides for T cell based therapies according to the present invention were further tested for their MHC binding capacity (affinity). The individual peptide-MHC complexes were produced by UV-ligand exchange, where a UV-sensitive peptide is cleaved upon UV-irradiation, and exchanged with the peptide of interest as analyzed. Only peptide candidates that can effectively bind and stabilize the peptide-receptive MHC molecules prevent dissociation of the MHC complexes. […]

binder=AMQEYIAVV readout_kind="peptide exchange yield" endpoint_result="20 to 50%"
binder=VLFQGQASL readout_kind="peptide exchange yield" endpoint_result="50 to 75%"
binder=SLASKLTTL readout_kind="peptide exchange yield" endpoint_result="≥ 75%"
binder=NLLETKLQL readout_kind="peptide exchange yield" endpoint_result="50 to 75%"
binder=FLQGYQLHL readout_kind="peptide exchange yield" endpoint_result="≥ 75%"

Required: peptide exchange yield, one value per binder below.
1. YLDFSNNRL
2. SLLNQDLHWSL
3. LLIGHLERV

## Output
1: 20 to 50%; 2: ≥ 75%; 3: 50 to 75%
